All figures here come from PubChem BioAssay AID248.

Entries and their measured T/C follow.
System: L1210 leukemia ip in BDF1 mice, survival T/C
Experiment: NCI In Vivo Anticancer Drug Screen. Data for tumor model L1210 Leukemia (intraperitoneal) in B6D2F1 (BDF1) mice
Details: endpoint: mean survival time; dose: 15.0 mg/kg/injection; schedule: Q01DX Z (ip); vehicle: carboxymethylcellulose (CMC); higher = longer survival
Inconclusive results and toxic doses are left out.

COMPOUND | T/C
C/C(CCC(=O)O)=N/N=C(N)N | 100 % of control
NC(=Nc1ccccc1)c1ccc(C(N)=Nc2ccccc2)cc1 | 104 % of control
C/C(=N/N=C(N)N)C(C)C | 102 % of control
CC(C)=C1CCC(C)C/C1=N\N=C(N)N (configuration not stated) | 100 % of control
CC(=O)N\C(N)=N/N=C\C(C)=N/N=C(\N)NC(C)=O | 94 % of control
CCOC(=O)C1(N)CCCC1 | 105 % of control
O=C(Nc1cc(NC(=O)Nc2cccc(C3=NCCN3)c2)cc(C(=O)Nc2ccccc2)c1)Nc1cccc(C2=NCCN2)c1 | 94 % of control

====

Test system: L1210 leukemia ip in BDF1 mice, survival T/C
Assay: NCI In Vivo Anticancer Drug Screen. Data for tumor model L1210 Leukemia (intraperitoneal) in B6D2F1 (BDF1) mice
Conditions: endpoint: mean survival time; dose: 50.0 mg/kg/injection; schedule: Q04DX003 (ip); vehicle: Klucel (hydroxypropylcellulose) (HPC); higher = longer survival
Toxic doses and inconclusive results are not listed.
READOUT_NAME: T/C

COMPOUND | REPORTED_MEASUREMENT
CCCCCCOP(=O)(CCCCCC)OCCCCCC | 89 % of control
c1ccc(C2=C(c3ccccc3)NC(c3ccccc3)N2)cc1 | 98 % of control
Cc1ccc2[nH]c3c(c2c1)C[P+](Cc1cccc2ccccc12)(c1ccccc1)CC3 (configuration not stated) | 105 % of control
C/C(=C\c1ccc2c(c1)OCO2)[N+](=O)[O-] | 94 % of control
CSc1nncc(-c2ccccc2)n1 | 96 % of control
O=C1C2CCC(=O)N2c2ccccc2S(=O)(=O)C1c1ccccc1 (configuration not stated) | 96 % of control
CN(C)CC1C2C=CC(C3CC23)C1CN(C)C (configuration not stated) | 102 % of control
CCOC(=O)C1C(=O)NC(C(=O)OCC)(C(=O)OCC)C1C(C)C (configuration not stated) | 96 % of control
CS(=O)c1cc2c(cc1[N+](=O)[O-])C(=O)c1ccccc1-2 (configuration not stated) | 97 % of control
COc1ccc(-c2cccc(-c3ccccc3)n2)cc1 | 98 % of control
CS(=O)(=O)OCCN(CCOS(C)(=O)=O)c1ccc(C=Nc2ccc(-c3csc(-c4ccc(Br)cc4)n3)cc2)c(Cl)c1 | 107 % of control
Oc1ccc(Nc2cc(/C=C/c3ccc(Cl)cc3)nc(/C=C/c3ccc(Cl)cc3)n2)cc1CN1CCCC1 | 104 % of control

====

Tested on: L1210 leukemia ip in BDF1 mice, survival T/C
Assay: NCI In Vivo Anticancer Drug Screen. Data for tumor model L1210 Leukemia (intraperitoneal) in B6D2F1 (BDF1) mice
Details: endpoint: mean survival time; dose: 200.0 mg/kg/injection; schedule: Q04DX003 (ip); vehicle: saline; higher = longer survival
Toxic doses and inconclusive results are not listed. Square brackets hold non-standard residues; d marks the D form. Peptide text beside a SMILES is read from it. * marks the point of attachment. Cbz = O=C(OCc1ccccc1)*; Sar = CNCC(=O)O

COMPOUND | T/C
CC1CNC(=S)O1 (stereo not given) | 101 % of control
COC(=O)C(N)CSCSC (stereo not given) | 105 % of control
COc1cccc(C=Nc2ccc(Br)cc2)c1O.COc1cccc(C=Nc2ccc(Br)cc2)c1O.[Co] | 98 % of control
COC(=O)C(C)CN1CCCCCC1 (stereo not given) | 104 % of control
CO/N=C/c1ccc([N+](=O)[O-])s1 | 95 % of control
CCCc1nc(N)[nH]c(=O)c1CCCCc1ccccc1 | 110 % of control
CC1(C)OC2C(CO)OC(OCc3ccccc3)C2O1 (stereo not given) | 105 % of control
O=C(C(F)F)C(F)F | 104 % of control
Nc1ccc(OCC(=O)N2CCOCC2)c(Cl)c1 | 98 % of control
COc1ccc(-c2c(O)c3cccc(-c4ccccc4)c3oc2=O)cc1 | 93 % of control
COC(=O)CN(C)C(=O)CNC(=O)OCc1ccccc1 (Cbz-Gly-[Sar]-OMe) | 90 % of control
O=C([O-])C[n+]1ccccc1 | 107 % of control
Cn1cc(Cl)nc1CO | 107 % of control
C[n+]1ccc(Nc2ccc(NC(=O)c3ccc(Nc4cc[n+](C)c5ccc([N+](=O)[O-])cc45)cc3)cc2)cc1 | 213 % of control
CCOC(=O)NC(=O)NC(=O)OCC | 119 % of control
CCC(CC)(CO)CO | 91 % of control
CCC(CO)NC(=O)C(O)C(O)C(O)C(O)CO (stereo not given) | 97 % of control
NCC(Cc1ccc(O)cc1)P(=O)(O)O (stereo not given) | 95 % of control
CC1COCC(C)N1C(=O)c1cccnc1 (stereo not given) | 105 % of control
Cc1nccc(Cl)n1 | 90 % of control
